B1: CHMP4C (parent)
chain: TNIRLPNVPSSSLPAQPNRKPGMS

variants of: B1; test: protein stability index of a GFP-peptide fusion (GPS, HEK-293T) (PSI 1-6); higher = more stable; settings: c terminus: a fixed tail appended;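 further: lentivirally expressed fusions sorted by FACS into six bins by GFP to DsRed ratio, PSI derived from sequencing read proportions per bin multiplied by bin number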
Catalogue of protein stability index readings, one per entry.
Number only, no unit.

# mutation annotation, protein stability index
rows = [
    ("S12F", 4.29),
    ("R4C", 4.77),
]

Proceeding to the next variant to report its protein stability index.
Problem: Consider the variant T1H and give its recorded protein stability index.
Solution: 4.56
